Tested on: Ruminococcus gnavus DSM 108212
Test: fold change of Tryptamine concentration vs plate DMSO controls (fold change (ratio)); higher = more amine produced, active = hit call of the paper (significant change in both replicates, either direction)
Conditions: incubation time: 27 h, anaerobic, 37 °C
Counter-ions that a name gives are not always drawn.
Some molecules, each annotated with its measured fold change of Tryptamine concentration.
Simply state the number, no unit and no words.

Worked cases, answers included:
CC(=O)Nc1c(I)c(NC(C)=O)c(I)c(C(=O)O)c1I [Diatrizoic acid dihydrate] (20 µM); 1.05
O=C(NCCCN1CCOCC1)c1ccc(Cl)cc1 [Eprobemide] (20 µM); 1.06
CNCC(O)c1ccc(O)c(O)c1 (stereo unspecified) [Racepinephrine hydrochloride] (20 µM); 1.05

Moving on to the next molecule.
API: value(readout=fold change of Tryptamine concentration, system=Ruminococcus gnavus DSM 108212) for record CS(=O)(=O)c1ccc(C2=C(c3ccccc3)C(=O)OC2)cc1 [Rofecoxib] (20 µM)
1.08

---

Test system: Klebsiella aerogenes DSM 30053
Assay: fold change of Cadaverine concentration vs plate DMSO controls (fold change (ratio)); higher = more amine produced, active = hit call of the paper (significant change in both replicates, either direction);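 for the amine columns active = adjusted P below 0.05 in both replicates with a change the same way and a mean fold change under 0.8 or over 1.25; inactive = the rest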
Conditions: incubation time: 27 h, anaerobic, 37 °C
Counter-ions that a name gives are not always drawn.
Your response should consist of one outcome taken from active, inactive

CC=C(C)C(=O)OC1C(OC(C)=O)C2(CO)C(O)CC3(C)C(=CCC4C5(C)CCC(OC6OC(C(=O)O)C(OC7OC(CO)C(O)C(O)C7O)C(O)C6OC6OC(CO)C(O)C(O)C6O)C(C)(CO)C5CCC43C)C2CC1(C)C (stereo not drawn) [Beta-Escin] (20 µM); inactive

Dear all, I need the recorded test outcome for c1ccc([C@H]2CN3CCSC3=N2)cc1 [Levamisole hydrochloride] (20 µM) , thank you.
inactive

Please give the result for CCC(NC(C)C)C(O)c1ccc(O)c(O)c1 (stereo not given) [Isoetharine mesylate salt] (20 µM) too.
inactive

Please give the result for CCOC(=O)C1=C(C)NC(C)=C(C(=O)OC)C1c1cccc(Cl)c1Cl (stereo not given) [Felodipine] (20 µM) too.
inactive

Please give the result for C[N+](C)(C)CCCCCC[N+](C)(C)C [Hexamethonium dibromide dihydrate] (20 µM) too.
inactive

Please give the result for O=C(O)c1cc(=O)[nH]c(=O)[nH]1 [Orotic acid] (20 µM) too.
inactive

Please give the result for CCC1=C(C)CN(C(=O)NCCc2ccc(S(=O)(=O)NC(=O)N[C@H]3CC[C@H](C)CC3)cc2)C1=O [Glimepiride] (20 µM) too.
inactive

Please give the result for CCOC(=O)C1=C[C@]2(CC)CCCN3CCc4c(n1c1ccccc41)[C@@H]32 [Vinpocetine] (20 µM) too.
inactive

Please give the result for Clc1ccc(C(c2ccccc2Cl)C(Cl)Cl)cc1 (stereo not given) [Mitotane] (20 µM) too.
inactive

Please give the result for CC(=O)N1CCN(c2ccc(OCC3COC(Cn4ccnc4)(c4ccc(Cl)cc4Cl)O3)cc2)CC1 (stereo not given) [Ketoconazole] (20 µM) too.
inactive

Please give the result for OC[C@@H](O)[C@@H](O)CO [Erythritol] (50 µM) too.
inactive

Please give the result for CN(C)CCCN1c2ccccc2Sc2ccc(C(F)(F)F)cc21 [Triflupromazine hydrochloride] (20 µM) too.
inactive

Please give the result for O=C1[C@@H]2[C@H]3CC[C@H](C3)[C@@H]2C(=O)N1CCCCN1CCN(c2ncccn2)CC1 [Tandospirone] (20 µM) too.
inactive

Please give the result for CC(C)NCC(O)COc1cccc2[nH]c3ccccc3c12 (stereo not given) [Carazolol] (20 µM) too.
inactive

Please give the result for CCCCCCCCNC(C)C(O)c1ccc(SC(C)C)cc1 (stereo not given) [Suloctidil] (20 µM) too.
inactive

Please give the result for Nc1c(CC(=O)O)cccc1C(=O)c1ccc(Br)cc1 [Bromfenac] (20 µM) too.
inactive

Please give the result for COc1cc(NC(C)CCCN)c2ncccc2c1 (stereo not given) [Primaquine diphosphate] (20 µM) too.
inactive

---

Tested on: Klebsiella aerogenes DSM 30053
Assay: growth (OD595) fold change vs plate DMSO controls (fold change (ratio)); higher = more growth
Conditions: incubation time: 27 h, anaerobic, 37 °C
Some molecules, each annotated with its measured growth.

Worked cases, answers included:
NNC(=O)c1ccncc1 [Isoniazid] (20 µM); 0.936
CC(C)CC(=O)N[C@H](C(=O)N[C@H](C(=O)N[C@@H](CC(C)C)[C@@H](O)CC(=O)N[C@@H](C)C(=O)N[C@@H](CC(C)C)[C@@H](O)CC(=O)O)C(C)C)C(C)C [Pepstatin A] (20 µM); 1
Cn1cnc2c1c(=O)[nH]c(=O)n2C [Theobromine] (20 µM); 1.04

I'd like to know its growth. The molecule in question is Nc1ccc(S(=O)(=O)c2ccc(N)cc2)cc1 [Dapsone] (20 µM)
0.979

Please give the result for CC(=O)OCC(=O)[C@@]12N=C(C)O[C@@H]1C[C@H]1[C@@H]3CCC4=CC(=O)C=C[C@]4(C)[C@H]3[C@@H](O)C[C@@]12C [Deflazacort] (20 µM) too.
0.986

---

Test system: Klebsiella aerogenes DSM 30053
Assay: fold change of Histamine concentration vs plate DMSO controls (fold change (ratio)); higher = more amine produced, active = hit call of the paper (significant change in both replicates, either direction)
Settings: incubation time: 27 h, anaerobic, 37 °C
Structures can show the parent of a compound that is named as a salt.
Kindly return class 1 if reported fold change of Histamine concentration is no lower than 1; return class 0 if it is lower.

Past entries and their recorded results:
Oc1ncnc2[nH]ncc12 [Allopurinol] (20 µM); class 1
c1ccc2cc3c(ccc4ccccc43)cc2c1 [Benz[a]anthracene] (20 µM); class 1
C=C1c2c(Cl)ccc(O)c2C(O)=C2C(=O)[C@]3(O)C(O)=C(C(N)=O)C(=O)[C@@H](N(C)C)[C@@H]3[C@@H](O)[C@H]12.O=C(O)c1cc(S(=O)(=O)O)ccc1O [Meclocycline sulfosalicylate] (20 µM); class 0

Confirm if fold change of Histamine concentration reported for the compound Cc1ccc(-c2cc(C(F)(F)F)nn2-c2ccc(S(N)(=O)=O)cc2)cc1 [Celecoxib] (20 µM) is 1 or above.
class 1

Please give the result for Oc1c(I)cc(Cl)c2cccnc12 [Clioquinol] (20 µM) too.
class 1

Please give the result for COCCCOc1ccnc(C[S+]([O-])c2nc3ccccc3[nH]2)c1C (stereo unspecified) [Rabeprazole sodium salt] (20 µM) too.
class 0

Please give the result for Oc1ccc2ccccc2c1N=Nc1ccccc1 [Sudan I (1-phenylazo-2-hydroxynaphthalene)] (20 µM) too.
class 0

Please give the result for N=C(N=C(N)N)N1CCOCC1 [Moroxidine hydrochloride] (20 µM) too.
class 1

Please give the result for CC(C)(Oc1ccc(CCNC(=O)c2ccc(Cl)cc2)cc1)C(=O)O [Bezafibrate] (20 µM) too.
class 0

Please give the result for NCCCC[C@H](N[C@@H](CCc1ccccc1)C(=O)O)C(=O)N1CCC[C@H]1C(=O)O [Lisinopril] (20 µM) too.
class 0

Please give the result for CC(C)(c1cc(Br)c(O)c(Br)c1)c1cc(Br)c(O)c(Br)c1 (20 µM) too.
class 0

---

Some compounds, each annotated with its measured growth.
Test system: Clostridium sporogenes DSM 1664
Assay: growth (OD595) fold change vs plate DMSO controls (fold change (ratio)); higher = more growth
Details: incubation time: 27 h, anaerobic, 37 °C
Simply state the number, no unit and no words.

C[C@]1(Cn2ccnn2)[C@H](C(=O)O)N2C(=O)C[C@H]2S1(=O)=O [Tazobactam] (20 µM); 0.105
CC(N)(Cc1ccc(O)c(O)c1)C(=O)O (centres undefined) [(L) Methyldopa] (20 µM); 0.936
COc1nc(N)nc2c1ncn2[C@@H]1O[C@H](CO)[C@@H](O)[C@@H]1O [Nelarabine] (20 µM); 1.13

Moving on to the next compound.
I'd like to know its growth. The compound in question is CO[C@@H]1[C@@H](O[C@@H]2O[C@H](C)[C@@H](O[C@H]3C[C@@](C)(O)[C@@H](OC(=O)CC(C)C)[C@H](C)O3)[C@H](N(C)C)[C@H]2O)[C@@H](CC=O)C[C@@H](C)[C@@H](O)/C=C/C=C/C[C@@H](C)OC(=O)C[C@H]1OC(C)=O [Josamycin] (20 µM)
0.00305

---

Some molecules, each annotated with its measured fold change of Cadaverine concentration.
Tested on: Klebsiella aerogenes DSM 30053
Test: fold change of Cadaverine concentration vs plate DMSO controls (fold change (ratio)); higher = more amine produced, active = hit call of the paper (significant change in both replicates, either direction)
Settings: incubation time: 27 h, anaerobic, 37 °C
Counter-ions that a name gives are not always drawn.

CCCc1nc(C)c2c(=O)nc(-c3cc(S(=O)(=O)N4CCN(CC)CC4)ccc3OCC)[nH]n12 [Vardenafil] (20 µM); 1.01 (inactive)
Cc1nnc(SCC2=C(C(=O)O)N3C(=O)[C@@H](NC(=O)Cn4cnnn4)[C@H]3SC2)s1 [Cefazolin sodium salt] (20 µM); 1.05 (inactive)
Cc1nc(C)c(Cl)c(O)c1Cl [Clopidol] (20 µM); 0.985 (inactive)

Moving on to the next molecule.
I'd like to know its fold change of Cadaverine concentration. The molecule in question is CCCSc1ccc2[nH]c(NC(=O)OC)nc2c1 [Albendazole] (20 µM)
1.01 (inactive)
